# Tested on: SF-268
# testDescription: NCI tumour cell line growth inhibition, 48 h
The source made the active and inactive calls. Rule as the data show it: active = GI50 up to about 1.1 µM and inactive = higher.
quantity: GI50

Illustrative cases are given below, each with its answer.
molecule	GI50
CNC(=O)OCCN1c2ccccc2Sc2ccccc21	> 100 µM (inactive)
O=c1[nH]c(=O)c2c([nH]1)[nH]c1ccccc12	> 100 µM (inactive)
CC(Cn1c2c3ccccc3ccc2c2oc(=O)c3ccccc3c21)N(C)C (configuration not stated)	> 100 µM (inactive)

q: // fetch SF-268 GI50 for Cc1oncc1/N=C1\C=C(O)C(=O)c2ccccc21
a: 10.5 µM (inactive)

====

# Test system: MDA-MB-435
# testDescription: NCI tumour cell line growth inhibition, 48 h
Calls of active or inactive are those of the source. Cut-off read from the data, not from the text of the source: active = GI50 up to about 1.1 µM and inactive = higher.
# key: entry, value: GI50

                                   molecule  quantity           assayvalue
0  C/C=C/C(C/C=C(\C)CO[Si](C)(C)C(C)(C)C)O[Si](C)(C)C(C)(C)C (stereo not given)      GI50  > 100 µM (inactive)

q: Which GI50 is reported for this molecule? O=C(/C=N/O)c1c(-c2ccccc2)[nH]c(-c2ccccc2)c1-c1ccccc1
a: 14.4 µM (inactive)

q: What do you have for COc1ccccc1-c1cc(O)c2cccnc2n1 ?
a: 23.4 µM (inactive)

q: What about this molecule? Cc1ccc(Nc2nc3ccccc3nc2NS(=O)(=O)c2ccc(N)cc2)cc1
a: 30.7 µM (inactive)

q: Check Cc1noc(NS(=O)(=O)c2ccc(NC(=O)c3ccc4[nH]c5ccccc5c(=O)c4c3)cc2)c1C too.
a: 35.6 µM (inactive)

====

# System: BT-549
# testDescription: NCI tumour cell line growth inhibition, 48 h
Structures can show the parent of a compound that is named as a salt. The source made the active and inactive calls. Rule as the data show it: active = GI50 up to about 1.1 µM and inactive = higher.
A correct response names exactly one class from active, inactive

Take a look at these entries with their results.
>>> df
                                   compound  categorylabel
0        C=CCSC1=N/C(=C\c2ccco2)C(=O)N1CC=C       inactive
1  COc1ccc(/N=C2\C(=N/c3ccc(OC)cc3)N(c3ccccc3[N+](=O)[O-])C(=S)N2c2ccc(OC)cc2)cc1       inactive
2    N#C/C(=C\N1CCNC1=S)C(=O)c1ccc2ccccc2c1       inactive
3  CC/C(=C(\c1ccccc1)c1ccc(OCCN(C)C)cc1)c1ccccc1 [TAMOXIFEN CITRATE]       inactive
4  CCOC(=O)c1ccc(NC2Oc3cc4c(cc3C(c3cc(OC)c(OC)c(OC)c3)C2C)OCO4)cc1 (stereo not given)         active
5            O=C(CCCCCNC(=O)c1ccc(Cl)cc1)NO       inactive
6  CCC1(O)C(=O)OCc2c1cc1n(c2=O)Cc2cc3c(N)cccc3nc2-1 (stereo not given) [RS-9-Aminocamptothecin]         active
7  O=c1[nH]c(=O)n(C2CC(O)C(CO)O2)cc1OCC1CCCCC1 (stereo not given)       inactive
8  CSc1ccc2c(c1)C(N1CCN(C)CC1)Cc1ccccc1S2 (stereo not given)       inactive
9  CCC(/C=C/C1OC(=O)C=CC1C)=C\C(C)C/C=C/C(C)=C/C(C)C(=O)C(C)C(O)C(C)C/C(C)=C/C(=O)O (stereo not given)         active

q: Please share the test call associated with COc1cc(O)c(C(=O)/C=C/c2ccc(O)cc2)cc1Oc1ccc(/C=C/C(=O)c2ccc(O)cc2O)cc1 [RHUSCHALCONE III] .
a: inactive

q: O=C(OCC(Cl)(Cl)Cl)N1CC[C@H](C2CCCCC2)C1 ?
a: inactive

q: Try this compound too: O=c1cc(N2CCCC2)[nH]c(=O)n1-c1ccc(F)cc1
a: inactive

q: Could you do the same for O=C1NC(=O)C(COCc2ccccc2)C2=C1SCCC2 (stereo not given) , please?
a: inactive

q: What do you have for Cc1ccc(C(O)c2cnc(C)n2Cc2ccccc2)cc1 (stereo not given) ?
a: inactive

q: Same question for NC(=O)[C@H](Cc1ccc(O)cc1)NC1=C(Cl)C(=O)c2c(O)ccc(O)c2C1=O please.
a: inactive

q: # iterate: CCCCCC(/C=C/C1CCC(=O)C1CC#C[Si](C)(C)C)OCc1ccccc1 (stereo not given)
a: inactive

q: Could you do the same for O=S(=O)(O)c1c(Cl)c(Cl)c(O)c2ncccc12 , please?
a: inactive

q: # repeat for COc1nc2c(c(=O)n1C)N=C(c1ccccc1)[C@H](C(CC(=O)c1ccccc1)c1ccccc1)C(c1ccccc1)N2 (stereo not given in full)
a: inactive

q: Now try O=C(/C=C/c1cccc(Br)c1)c1ccc(Cl)cc1 .
a: inactive

====

# Tested on: LXFL 529
# testDescription: NCI tumour cell line growth inhibition, 48 h
The source made the active and inactive calls. No stated cut-off is given here; in the data, active = GI50 up to about 1.1 µM and inactive = higher.
Your reply should match one of these outcome classes. 1.0 (active), 0.0 (inactive)

Check out these entries, answers already filled in.
>>> df
                                   compound  categorylabel
0               CCCCCCCCCCCCCCCCP(=O)(OC)OC            0.0
1             O=S(=O)(O)SC/C=C\CSS(=O)(=O)O            0.0
2  Cc1nc(NC(=S)NC(=O)c2ccc(Cl)c(Cl)c2)sc1C(=O)/C=C/c1ccccc1[N+](=O)[O-]            0.0
3  Cc1ccc(Nc2nc(-c3ccc(-c4ccc([N+](=O)[O-])cc4)o3)cs2)cc1            0.0

q: I would be grateful if you could indicate the recorded call for O=C(CSc1nnc(Cc2ccccc2)o1)Nc1ccc(Cl)cc1[N+](=O)[O-] .
a: 0.0

q: Continue with COc1ccc(/C=C2\CCCCC2=O)cc1
a: 0.0

q: What about this compound? C/C(=N\NC(=S)N1CCCCCC1)c1nccnc1C
a: 1.0

q: Repeat with CCOC(=O)NNC(=O)NC12CC3CC(CC(C3)C1)C2
a: 0.0

====

# Tested on: A498
# testDescription: NCI tumour cell line growth inhibition, 48 h
Active and inactive are the calls of the source. Cut-off read from the data, not from the text of the source: active = GI50 up to about 1.1 µM and inactive = higher.
Some compounds, each annotated with its measured GI50.

q: GET /values?readout=GI50&system=A498&item= O=P1(O)c2ccccc2CSCc2ccccc21
a: > 100 µM (inactive)

q: And for CCOc1ccc(N2C(=O)C3c4[nH]c5ccccc5c4C4CCC(C(C)(C)C)CC4C3C2=O)cc1 (centres undefined) ?
a: > 100 µM (inactive)

q: How about O=C1c2cc(Cl)ccc2-n2cnnc2C2CSCN12 (centres undefined) ?
a: 55.6 µM (inactive)

q: Likewise for Cc1cc(Br)ccc1NC1=CC(=O)C(=O)c2ccccc21 ?
a: 86.7 µM (inactive)

q: Again, but for COc1ccc2c(c1)CCc1cc(C(N)=O)c3nnnn3c1-2
a: 18.2 µM (inactive)

q: Please answer likewise for c1cncc(CC2(c3cc4ccccc4[nH]3)OCCO2)c1
a: > 100 µM (inactive)

q: Lookup COC(=O)NNC(c1ccc(Cl)cc1)c1ccc(Cl)cc1
a: 18.6 µM (inactive)

q: Also, CC(=O)Oc1ccccc1C(=O)Nc1ncc([N+](=O)[O-])s1 [NITAZOXANIDE] please.
a: 56.2 µM (inactive)

q: Continue with COCC1N=C(c2cc(OC)c(OC)c(OC)c2-c2cc3c(cc2C2OCCCO2)OCO3)O[C@H]1c1ccccc1 (some centres undefined)
a: > 100 µM (inactive)

====

# Tested on: HCT-116
# testDescription: NCI tumour cell line growth inhibition, 48 h
The source made the active and inactive calls. Cut-off read from the data, not from the text of the source: active = GI50 up to about 1.1 µM and inactive = higher.
GI50 values, listed per item

>>> print(df.to_string())
                                   molecule           assayvalue
0  N=C(N)NS(=O)(=O)c1ccc(NC(=O)c2cccc3c(Nc4ccc(S(=O)(=O)N=C(N)N)cc4)c4ccc(Cl)cc4nc23)cc1   38.7 µM (inactive)
1  COc1ccccc1/C=C/C1=NN(c2cccc(S(=O)(=O)O)c2)C2(C1)C(Cl)C(=O)N2c1nc2ccccc2s1 (stereo not given)   61.9 µM (inactive)
2                CN(N)/N=N/c1[nH]cnc1C(N)=O   9.12 µM (inactive)
3             CC(=O)N1CCc2[nH]c3ccccc3c2CC1  > 100 µM (inactive)
4       O=c1oc2ccc3ccccc3c2cc1-c1cn2ccsc2n1     16 µM (inactive)

q: Which GI50 value is on record for CSc1[nH]nc(N)c1C(=O)Nc1ccc(C)cc1 ?
a: 75.2 µM (inactive)

q: Entry COc1ccc(NC(=O)c2oc3cc(O)ccc3c(=O)c2C)c([N+](=O)[O-])c1 please
a: > 100 µM (inactive)

q: Same question, Cc1cc(S(=O)(=O)Nc2nnc3c(C(F)(F)F)cc(Cl)cn23)c(S)cc1Cl this time
a: 57.9 µM (inactive)

q: Would you mind doing Nc1nc(-c2ccccc2)cc(-c2ccc(OCc3ccccc3)cc2O)n1 as well?
a: 28.8 µM (inactive)

q: Now the molecule O=C1CC(NC(=O)C(F)(F)F)c2c(Br)sc(N3CCNCC3)c21 (stereo not given)
a: > 100 µM (inactive)
